Taken from PubChem BioAssay AID602346.

# assay.details: HIV Vif self-association inhibitors, primary screen, imaging, HEK293T, single point (AID 602346)
# recorded.conditions: HEK293T cells, Vif self-association by quenched fluorescence, 24 h, at 7.49 µM, active compounds read high
The campaign covered roughly 340,000 compounds. About 1,200 (0.35%) were called active. The entries come from a sample that favours actives as a whole.
quantity.kind: inhibition (%)

{"compound": "COc1cc(NC(=O)c2ccccc2)c(OC)cc1NC(=O)Cc1ccccc1", "u": "%", "reported.value": -4.83}
{"compound": "COc1ccc(NC(=O)c2cn(-c3ccccc3)nc2SC)cc1", "u": "%", "reported.value": -9.63}
{"compound": "CC(=O)Nc1cc(-c2ccccc2F)cn2c(-c3cccc(C(F)(F)F)c3)cnc12", "u": "%", "reported.value": -25.4}
{"compound": "Cc1ccc(C(=O)Nc2nc3ccc(Cl)cc3s2)o1", "u": "%", "reported.value": -31.1}
{"compound": "O=C(c1ccc(CS(=O)Cc2ccccc2Cl)o1)N1CCN(c2ccccc2)CC1 (configuration not stated)", "u": "%", "reported.value": 2.07}
{"compound": "COc1cc(NC(=O)c2ccc(-c3csc(C)n3)cc2)c(OC)cc1Cl", "u": "%", "reported.value": 64}
{"compound": "CC(=O)NC1CCN(CC(=O)Nc2nccs2)CC1", "u": "%", "reported.value": 4.49}
{"compound": "Nc1c(N(Cc2ccco2)C(=O)c2cccc(F)c2)c(=O)[nH]c(=O)n1Cc1ccccc1", "u": "%", "reported.value": 6.01}
{"compound": "FC(F)(F)c1nnc2ccc(N3CCN(c4ccccc4)CC3)nn12", "u": "%", "reported.value": 19.6}
{"compound": "CCOCC(=O)Nc1cc(OC)c(Cl)cc1OC", "u": "%", "reported.value": -3.02}
{"compound": "COc1ccc(-c2nc3cnccn3c2NC2CCCCC2)cc1-c1cccc(Cl)c1", "u": "%", "reported.value": 51.8}
{"compound": "O=C(/C=C\\c1cn(-c2ccccc2)nc1-c1cccs1)N1CCOCC1", "u": "%", "reported.value": 87.7}
{"compound": "CCc1ccc(OCC(=O)NCC(c2ccc(Cl)cc2)N2CCCCC2)cc1 (configuration not stated)", "u": "%", "reported.value": 58.2}
{"compound": "Cc1ccccc1C1=NC(C(F)(F)F)(C(F)(F)F)c2c(n(-c3ccc(F)cc3)c(=O)[nH]c2=O)N1", "u": "%", "reported.value": -7.19}
{"compound": "CC(C)Oc1cc(F)ccc1-c1cc(C(=O)Nc2cccc(Cl)c2)[nH]n1", "u": "%", "reported.value": -9.5}
{"compound": "Cc1ccc(Cc2cnc(N)s2)o1", "u": "%", "reported.value": -1.08}
{"compound": "NC(Cc1ccc(F)cc1)c1csc(Nc2nncc3ccccc23)n1 (configuration not stated)", "u": "%", "reported.value": -17.9}
{"compound": "COc1ccc(OC)c(NC(=O)C2(C)CCN2C(=O)Cc2ccccc2)c1 (configuration not stated)", "u": "%", "reported.value": 2.75}
{"compound": "O=CNc1cc(-c2ccc(C(=O)N3CCOCC3)cc2)cn2c(-c3ccc(F)cc3)cnc12", "u": "%", "reported.value": 6.34}
{"compound": "O=c1[nH]c(=O)n(Cc2ccco2)c2c1C(C(F)(F)F)(C(F)(F)F)N=C(c1ccco1)N2", "u": "%", "reported.value": 51.3}
{"compound": "COc1ccc(NC2CCCN(C(=O)c3ccccc3-c3ncc[nH]3)C2)cc1 (configuration not stated)", "u": "%", "reported.value": 10.8}
{"compound": "Cc1nc2c(OCc3ccc(Cl)cc3Cl)cccn2c1N(C)CC1CC1", "u": "%", "reported.value": -14}
{"compound": "CC[C@@H]1Cc2cc(O)ccc2C2=C1c1ccc(O)cc1C[C@H]2CC", "u": "%", "reported.value": 85.1}
{"compound": "COc1ccc(C(CNC(=O)COc2ccc([N+](=O)[O-])cc2)N2CCCCC2)cc1 (configuration not stated)", "u": "%", "reported.value": 3.74}
{"compound": "Cc1ccccc1OCCOc1ccc([N+](=O)[O-])cc1/C=N/n1cnnc1", "u": "%", "reported.value": 69.4}
{"compound": "CC(=O)N(CC(O)CO)c1c(I)c(C(=O)NCC(O)CO)c(I)c(C(=O)NCC(O)CO)c1I (configuration not stated)", "u": "%", "reported.value": 62}
{"compound": "Cc1cccc(C)c1Cn1c(C)c(C(=O)NCc2cccc(Cl)c2)sc1=O", "u": "%", "reported.value": -0.663}
{"compound": "COc1cccc(OCCOc2cccc(/C=N/n3cnnc3)c2)c1", "u": "%", "reported.value": 11.7}
{"compound": "Cc1ccccc1OS(=O)(=O)c1cccc([N+](=O)[O-])c1", "u": "%", "reported.value": -0.237}
{"compound": "O=C(COC(=O)c1ccc(O)cc1)Nc1nccs1", "u": "%", "reported.value": 2.05}
{"compound": "C[C@@H]1CCCCO[C@H](CN(C)Cc2ccccc2)[C@@H](C)CN([C@H](C)CO)C(=O)c2cc(NS(=O)(=O)c3ccc(Cl)cc3)ccc2O1", "u": "%", "reported.value": 8.14}
{"compound": "CCc1nc2ccc(C(=O)NCc3ccc(OC)cc3)cn2c1N(CC)Cc1cccc(Br)c1", "u": "%", "reported.value": 4.42}
{"compound": "O=C(NC(c1ccc(-c2ccccc2)cc1)c1cnccn1)C1CCN(CCOc2ccc(Cl)cc2Cl)CC1 (configuration not stated)", "u": "%", "reported.value": 4.85}
{"compound": "CC(C)(C)n1nc(Cc2cccc3ccccc23)c(C#N)c1N", "u": "%", "reported.value": 13.5}
{"compound": "COc1ccc(NC(=O)C2Cc3c(-c4ccc5c(c4)OCO5)ccnc3O2)cn1 (configuration not stated)", "u": "%", "reported.value": -5.58}
{"compound": "CC1CCN(CC(=O)Nc2nccs2)CC1", "u": "%", "reported.value": 50.9}
{"compound": "Cc1ccc(CCC(=O)Nc2ncc(Cc3cc(Cl)ccc3Cl)s2)o1", "u": "%", "reported.value": 144}
{"compound": "COCC(=O)Nc1c(I)c(C(=O)NCC(O)CO)c(I)c(C(=O)N(C)CC(O)CO)c1I (configuration not stated)", "u": "%", "reported.value": -1.59}
{"compound": "COc1cccc(CNc2nc3cc(-c4csc5ccccc45)sc3c(=O)n2C)c1", "u": "%", "reported.value": -4.94}
{"compound": "Nc1nnc2c(C(F)(F)F)nc3ccccc3n12", "u": "%", "reported.value": 44}
{"compound": "O[C@H]1C[C@H](c2ccc(Cl)cc2)N(Cc2cccs2)C[C@@H]1n1cc(C2CC2)nn1", "u": "%", "reported.value": -12.7}
{"compound": "CCOCCC(=O)Nc1ccc2c(c1)c(=O)n(C)n2-c1ccc2ccccc2c1", "u": "%", "reported.value": 34.9}
